# Tested on: MCF7 breast
# Experiment description: NCI tumour cell line growth inhibition, 48 h
Measured metric: TGI

Specify the recorded TGI for "COc1ccc(SCc2cc(OC)c(OC)c(OC)c2)cc1OC" , system: MCF7 breast.
> 100 µM

Lab note: record TGI of "O=C(N/N=C/c1ccccc1O)c1ccccc1O" tested on MCF7 breast.
> 100 µM

Find the measured TGI of COc1cc(C2SC(N)=Nc3c2c(C)nn3C(=O)c2ccc(Cl)cc2)cc(OC)c1OC (stereo not drawn) with MCF7 breast as test system.
> 10 µM

* * *

Attribute: TGI
# Tested on: OVCAR-8 ovarian
# Experiment description: NCI tumour cell line growth inhibition, 48 h

Some solved cases for reference:
Compound | Result
C[C@@H]1C[N+]2([O-])[C@H]3C4=CCC[C@@H]4CC[C@H]3[C@@]3(C)OC(=O)CC[C@]34CC[C@H]1[C@@H]42 (some centres undefined) | > 60 µM
[N-]=[N+]=Nc1ccccc1Oc1ccccc1 | > 100 µM
Clc1ccccc1/C=C\C1(c2ccccc2)OCCO1 | 34.3 µM

# ---- query compound ----
Give the reported value of TGI for this record: CC12OC1(C)C1C(=O)OCC1C2=O (centres undefined)
> 100 µM

* * *

# System: RPMI-8226 leukemia
# Experiment description: NCI tumour cell line growth inhibition, 48 h
*1 amine or outer side, *2 acyl side, *3 side chain or, on linkers, in order; H or OH if unused. Where a SMILES comes first, the peptide text is derived from it. Bridges are numbered along the chain shown (N, C = ends). [ ]: non-standard residue; d: D form. Adda = CO[C@@H](Cc1ccccc1)[C@@H](C)/C=C(C)/C=C/[C@H](N[*:1])[C@H](C)C(=O)[*:2]; dAsp(3S-Me) = C[C@H](C(=O)[*:3])[C@@H](N[*:1])C(=O)[*:2]; d(γGlu) = O=C(O)[C@@H](CCC(=O)[*:2])N[*:1]; NMeDha = C=C(NC)C(=O)O
Measured metric: GI50

Compound | GI50
O=C1c2ccccc2-c2nnc(-c3ccc(Br)cc3)cc21 | > 100 µM
ClCc1ccc(-c2ccc(Cn3cnc4nc(Cl)nc(Cl)c43)cc2)cc1 | 3.81 µM
C(#Cc1cnccn1)/C=C\C#Cc1cnccn1 | 8.49 µM

Now look at this entry.
Report value: GI50, system: RPMI-8226 leukemia, compound: C=C1C(=O)N[C@H](C)C(=O)N[C@@H](CC(C)C)C(=O)N[C@@H](C(=O)O)[C@H](C)C(=O)N[C@@H](CCCN=C(N)N)C(=O)N[C@@H](/C=C/C(C)=C/[C@H](C)[C@H](Cc2ccccc2)OC)[C@H](C)C(=O)N[C@@H](C(=O)O)CCC(=O)N1C (R[Adda][d(γGlu)][NMeDha][dA]L[dAsp(3S-Me)]-OH; lactam N-7)
> 5 µM

* * *

# Test system: SF-295 CNS
# Experiment description: NCI tumour cell line growth inhibition, 48 h
Measured metric: TGI

Worked set:
Compound | System name | TGI
CCOc1nc(-c2ccccc2)cc2c(O)c(C(=O)N/N=C/c3ccc(O)cc3O)[nH]c(=O)c12 | SF-295 CNS | > 100 µM
O=S(=O)(O)SC/C=C\CSS(=O)(=O)O | SF-295 CNS | > 100 µM
COc1cc(NCCCCCN=C(N)N)c2ncccc2c1 | SF-295 CNS | 97.8 µM
CCOC(=O)C(=O)Nc1ccc(C)c(C)c1 | SF-295 CNS | > 100 µM
CN(Cc1cnc2c(n1)C(N)=NN(N)N2)c1ccc(C(=O)NC(CCP(=O)(O)O)C(=O)O)cc1 (stereo not given) | SF-295 CNS | > 100 µM
Nc1nc(-c2ccccc2)c(Cl)c(-c2cc(Cl)ccc2O)n1 | SF-295 CNS | > 94.3 µM

Indicate its recorded TGI; the compound in question is CN1C2CCC1CC(CC(=O)NC(c1ccc(F)cc1)c1ccc(F)cc1)C2 (stereo not given)
> 100 µM

Consider the compound "O=C1/C(=C/c2cc3c(=O)c4ccccc4sc3s2)NC(=S)N1c1ccccc1" . State its measured TGI.
> 100 µM
